Reported pIC50 values for a set of binders
Molecular target: T1, human TIGIT over-expressed on cells (human, UniProt Q495A1 22-244)
T1 construct: also called CHO-K1/human TIGIT cells; CHO cells expressing human TIGIT
T1 sequence: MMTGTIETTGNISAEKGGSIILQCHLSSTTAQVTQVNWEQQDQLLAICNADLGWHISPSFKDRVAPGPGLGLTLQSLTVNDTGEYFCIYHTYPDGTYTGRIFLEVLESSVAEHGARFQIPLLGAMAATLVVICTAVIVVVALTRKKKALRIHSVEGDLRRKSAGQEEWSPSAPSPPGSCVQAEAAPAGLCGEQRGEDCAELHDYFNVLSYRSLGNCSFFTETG
Assay: competition FACS, CHO cells expressing human TIGIT; competitor PVR recombinant protein
pIC50: −log10 of the molar value.

{"binder": "8F2D8E7 (antibody, V domains shown, Mouse monoclonal antibody; also called mouse anti-human TIGIT monoclonal antibody 8F2D8E7) VH: QVQLQQSGAELVKPGASVKLSCKTSGYTFTSYWIQWIKQRPGQGLGWIGEIFPGTGTTYYNEKFKGKATLTIDTSSSTAYMQLSSLTSEDSAVYSCARSRDGKVVDYWGQGTSVTVSS VL: DVQMTQTTSSLSASLGDRVTISCRASQDISNFLNWYQQRPDGTVKLLIYYTSKLHSGVPSRFSGSGSGTDYSLTIRNLEKEDIATYFCQQGNTPPYTFGGGTKLEIK", "pIC50": 9.05}
{"binder": "83G6H11C12 (antibody, V domains shown, Mouse monoclonal antibody; also called mouse anti-human TIGIT monoclonal antibody 83G6H11C12) VH: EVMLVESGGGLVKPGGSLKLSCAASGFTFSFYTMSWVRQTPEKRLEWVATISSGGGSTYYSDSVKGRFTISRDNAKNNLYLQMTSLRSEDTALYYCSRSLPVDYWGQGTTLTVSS VL: QIVLTQSPAIMSASLGERVTMTCTASSSVSSSYLHWYQQKPGSSPKLWIYSTSNLASGVPARFSGSGSGTSYSLTISSMEAEDAATYYCHLYHHSPYTFGGGTKLEIK", "pIC50": 9.15}
{"binder": "92E9D4B4 (antibody, V domains shown, Mouse monoclonal antibody; also called mouse anti-human TIGIT monoclonal antibody 92E9D4B4) VH: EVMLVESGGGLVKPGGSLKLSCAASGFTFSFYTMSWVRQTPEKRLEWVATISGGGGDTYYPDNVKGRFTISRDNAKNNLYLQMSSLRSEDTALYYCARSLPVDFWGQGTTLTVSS VL: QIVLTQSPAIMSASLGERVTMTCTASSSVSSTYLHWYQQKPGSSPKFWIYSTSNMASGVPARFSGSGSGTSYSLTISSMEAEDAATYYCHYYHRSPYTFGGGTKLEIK", "pIC50": 8.70}
{"binder": "64G1E9B4 (antibody, V domains shown, Mouse monoclonal antibody; also called mouse anti-human TIGIT monoclonal antibody 64G1E9B4) VH: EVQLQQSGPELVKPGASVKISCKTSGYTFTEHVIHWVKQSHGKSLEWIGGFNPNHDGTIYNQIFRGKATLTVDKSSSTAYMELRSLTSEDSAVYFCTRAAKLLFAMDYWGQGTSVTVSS VL: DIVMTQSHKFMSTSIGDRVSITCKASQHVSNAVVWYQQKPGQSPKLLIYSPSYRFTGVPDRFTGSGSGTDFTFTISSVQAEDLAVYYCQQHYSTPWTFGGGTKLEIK", "pIC50": 9.00}
